target: T1, Anti-CD28 Fab (SEQ ID NOs: 696, 697); test: phage binding ELISA; biotinylated Fab on neutravidin plate, clonal phage supernatant, anti-M13 HRP detection
T1 construct: In the phage ELISA the Fab was biotinylated and captured on neutravidin coated plates
T1 sequence (VH, as listed by the source, chain 1 of 2): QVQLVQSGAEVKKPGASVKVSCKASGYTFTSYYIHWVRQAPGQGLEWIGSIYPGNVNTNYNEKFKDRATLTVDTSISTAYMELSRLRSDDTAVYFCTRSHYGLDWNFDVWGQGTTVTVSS
T1 sequence (VL, as listed by the source, chain 2 of 2): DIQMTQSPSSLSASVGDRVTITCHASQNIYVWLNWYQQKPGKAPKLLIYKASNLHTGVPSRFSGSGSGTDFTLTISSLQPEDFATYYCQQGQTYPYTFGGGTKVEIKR
So I've got a bunch of binders here, and I need their Anti-CD28 Fab (SEQ ID NOs: 696, 697) signal values.
Enter the number alone.

[Q] Reported Anti-CD28 Fab (SEQ ID NOs: 696, 697) signal, binder TCSAGATYSWPLCF [Phage-1650] : ____
[A] 1.12

[Q] Reported Anti-CD28 Fab (SEQ ID NOs: 696, 697) signal, binder QCAAGATYPWPVCL [Phage-1647] : ____
[A] 1.13

[Q] Reported Anti-CD28 Fab (SEQ ID NOs: 696, 697) signal, binder PCAAGAQWSWPMCL [Phage-1656] : ____
[A] 1.07

[Q] Reported Anti-CD28 Fab (SEQ ID NOs: 696, 697) signal, binder TCAAGATWTWPTCM [Phage-1655] : ____
[A] 1.07

[Q] Reported Anti-CD28 Fab (SEQ ID NOs: 696, 697) signal, binder TCAAGATYNWPWCF [Phage-1654] : ____
[A] 1.07

[Q] Reported Anti-CD28 Fab (SEQ ID NOs: 696, 697) signal, binder TCSAGAHYEWPKCL [Phage-1649] : ____
[A] 1.12

[Q] Reported Anti-CD28 Fab (SEQ ID NOs: 696, 697) signal, binder TCAAGATYSWPSCF [Phage-1651] : ____
[A] 1.1

[Q] Reported Anti-CD28 Fab (SEQ ID NOs: 696, 697) signal, binder TCSAGATYTWPVCF [Phage-1648] : ____
[A] 1.13
